# Protocol Description: The drug is tested on WLS-010 corresponding to human gut metagenome with ENA study accession number: PRJEB37062 and ENA sample accession number: ERS12561743 for biotransformation under anaerobic condition. The drug concentrations were measured over 9 timepoints collected between 0 and 24 hours of incubation by liquid-chromatography-coupled mass spectrometry (LC–MS); also: call rule not given here
# Protocol Conditions: 2 µM
Measurement Type: Bacterial Biotransformation

Sample answers from the record:
{"columns": ["Molecule", "Test Value"],
 "data": [
  ["O=C1[C@H](CC[C@H](O)c2ccc(F)cc2)[C@@H](c2ccc(O)cc2)N1c1ccc(F)cc1", "Compound metabolized"],
  ["CC(C)NCC(O)COc1ccc(COCCOC(C)C)cc1.CC(C)NCC(O)COc1ccc(COCCOC(C)C)cc1.O=C(O)/C=C/C(=O)O (configuration not stated) [BISOPROLOL FUMARATE]", "Compound NOT metabolized"],
  ["CCOc1ccc(NC(C)=O)cc1", "Compound NOT metabolized"],
  ["CNS(=O)(=O)Cc1ccc2[nH]cc(CCN(C)C)c2c1.O=C(O)CCC(=O)O [SUMATRIPTAN SUCCINATE]", "Compound NOT metabolized"],
  ["CCN(CC)CCOCCOC(=O)C1(c2ccccc2)CCCC1.O=C(O)CC(O)(CC(=O)O)C(=O)O [CARBETAPENTANE CITRATE]", "Compound metabolized"],
  ["CN/C(=N/CCSCc1nc[nH]c1C)NC#N", "Compound metabolized"]
]}

Any idea what its Bacterial Biotransformation is? The molecule is CC(C(=O)O)c1ccc2c(c1)Cc1cccnc1O2 (configuration not stated)
Compound metabolized

GET /values?readout=Bacterial Biotransformation&item= CCCC(=O)Nc1ccc(OCC(O)CNC(C)C)c(C(C)=O)c1 (configuration not stated)
Compound NOT metabolized

May I ask what Bacterial Biotransformation has been recorded for Cc1ccc(S(=O)(=O)NC(=O)NN2CCCCCC2)cc1 [TOLAZAMIDE] ?
Compound metabolized

// returns reported Bacterial Biotransformation for input "CN1CCN(C2=Nc3cc(Cl)ccc3Nc3ccccc32)CC1"
Compound NOT metabolized

# get_value(readout='Bacterial Biotransformation', item= NC(CO)(CO)CO.O=C(c1ccccc1)c1ccc2n1CCC2C(=O)O (configuration not stated) )
Compound metabolized

Can you share its Bacterial Biotransformation? I mean this molecule: O=C(NCc1ccccc1)OCCO [BURAMATE]
Compound NOT metabolized

----------
# Protocol Description: The drug is tested on WLS-039 corresponding to human gut metagenome with ENA study accession number: PRJEB37062 and ENA sample accession number: ERS12561746 for biotransformation under anaerobic condition. The drug concentrations were measured over 9 timepoints collected between 0 and 24 hours of incubation by liquid-chromatography-coupled mass spectrometry (LC–MS)
# Protocol Conditions: 2 µM
Measurement Type: Bacterial Biotransformation

{"columns": ["Compound", "Measurement Type", "Test Value"],
 "data": [
  ["CN1C(C(=O)Nc2ccccn2)=C(O)c2sccc2S1(=O)=O [TENOXICAM]", "Bacterial Biotransformation", "Compound NOT metabolized"],
  ["CN1CCC(=C2c3ccccc3CCc3cccnc32)CC1.O=C(O)/C=C\\C(=O)O.O=C(O)/C=C\\C(=O)O [AZATADINE MALEATE]", "Bacterial Biotransformation", "Compound NOT metabolized"],
  ["CCCCc1nc(Cl)c(CO)n1Cc1ccc(-c2ccccc2-c2nn[nH]n2)cc1 [LOSARTAN]", "Bacterial Biotransformation", "Compound NOT metabolized"]
]}

----------
# Protocol Description: The drug is tested on WLS-073 corresponding to human gut metagenome with ENA study accession number: PRJEB37062 and ENA sample accession number: ERS12561749 for biotransformation under anaerobic condition. The drug concentrations were measured over 9 timepoints collected between 0 and 24 hours of incubation by liquid-chromatography-coupled mass spectrometry (LC–MS)
# Protocol Conditions: 2 µM

{"columns": ["Molecule", "Bacterial Biotransformation"],
 "data": [
  ["CCc1nc(N)nc(N)c1-c1ccc(Cl)cc1 [PYRIMETHAMINE]", "Compound NOT metabolized"],
  ["COc1ccc2c(c1OC)C(=O)O[C@@H]2[C@H]1c2c(cc3c(c2OC)OCO3)CCN1C [NOSCAPINE]", "Compound metabolized"],
  ["CCOc1ccc(NC(C)=O)cc1 [PHENACETIN]", "Compound NOT metabolized"],
  ["COc1ccc(CCN(C)CCCC(C#N)(c2ccc(OC)c(OC)c2)C(C)C)cc1OC (centres undefined)", "Compound metabolized"]
]}

----------
# Protocol Conditions: human gut metagenome, 24 h, 2 µM
Measurement Type: Bacterial Biotransformation

The cases that follow already have their Bacterial Biotransformation on record.
{"columns": ["Compound", "Bacterial Biotransformation"],
 "data": [
  ["CN1CCc2c(c3ccccc3n2Cc2ccccc2)C1.CN1CCc2c(c3ccccc3n2Cc2ccccc2)C1.O=S(=O)(O)c1cccc2c(S(=O)(=O)O)cccc12", "Compound NOT metabolized"],
  ["O=c1n(CCCN2CCN(c3cccc(Cl)c3)CC2)nc2ccccn12 [TRAZODONE]", "Compound NOT metabolized"],
  ["C=CCc1ccccc1OCC(O)CNC(C)C (stereo unspecified) [ALPRENOLOL]", "Compound NOT metabolized"],
  ["COc1ccccc1OCC(O)COC(N)=O (stereo unspecified) [METHOCARBAMOL]", "Compound NOT metabolized"],
  ["CN1CCN(C2=Nc3cc(Cl)ccc3Nc3ccccc32)CC1 [CLOZAPINE]", "Compound NOT metabolized"],
  ["C[C@@H](CO)NC(=O)[C@@H]1C=C2c3cccc4[nH]cc(c34)C[C@H]2N(C)C1.O=C(O)/C=C\\C(=O)O [ERGONOVINE MALEATE]", "Compound NOT metabolized"],
  ["CCCc1nc(C(C)(C)O)c(C(=O)OCc2oc(=O)oc2C)n1Cc1ccc(-c2ccccc2-c2nnn[nH]2)cc1 [OLMESARTAN MEDOXOMIL]", "Compound metabolized"],
  ["N#Cc1ccc(C(c2ccc(C#N)cc2)n2cncn2)cc1 [LETROZOLE]", "Compound NOT metabolized"],
  ["CCOC(=O)[C@H](CCc1ccccc1)N[C@@H](C)C(=O)N1[C@H](C(=O)O)C[C@H]2CCCC[C@@H]21 [TRANDOLAPRIL]", "Compound metabolized"],
  ["COc1cc2c(c(OC)c1OC)-c1ccc(OC)c(=O)cc1[C@@H](NC(C)=O)CC2 [COLCHICINE]", "Compound metabolized"]
]}

Consider the compound CCN(CC)C(C)CN1c2ccccc2Sc2ccccc21 (stereo unspecified) [ETHOPROPAZINE] and give its measured Bacterial Biotransformation.
Compound metabolized

# get_value(readout='Bacterial Biotransformation', item= COc1ccccc1N1CCN(CC(O)COc2cccc3ccccc23)CC1 (stereo unspecified) [NAFTOPIDIL] )
Compound NOT metabolized

What measured Bacterial Biotransformation goes with O=C1[C@H](CC[C@H](O)c2ccc(F)cc2)[C@@H](c2ccc(O)cc2)N1c1ccc(F)cc1 [EZETIMIBE] ?
Compound NOT metabolized

Name the recorded Bacterial Biotransformation for CCCc1nn(C)c2c(=O)[nH]c(-c3cc(S(=O)(=O)N4CCN(C)CC4)ccc3OCC)nc12.O=C(O)CC(O)(CC(=O)O)C(=O)O [SILDENAFIL CITRATE] .
Compound metabolized

What does the record list as Bacterial Biotransformation for CN1CCC(=C2c3ccccc3CCc3cccnc32)CC1.O=C(O)/C=C\C(=O)O.O=C(O)/C=C\C(=O)O [AZATADINE MALEATE] ?
Compound NOT metabolized

Please give the measured Bacterial Biotransformation for this compound: CCc1nc(N)nc(N)c1-c1ccc(Cl)cc1 [PYRIMETHAMINE]
Compound NOT metabolized

----------
# Protocol Description: The drug is tested on WLS-006 corresponding to human gut metagenome with ENA study accession number: PRJEB37062 and ENA sample accession number: ERS12561741 for biotransformation under anaerobic condition. The drug concentrations were measured over 9 timepoints collected between 0 and 24 hours of incubation by liquid-chromatography-coupled mass spectrometry (LC–MS)
# Protocol Conditions: 2 µM
Measurement Type: Bacterial Biotransformation

{"columns": ["Molecule", "Bacterial Biotransformation"],
 "data": [
  ["CN1C[C@H](C(=O)N[C@]2(C)O[C@@]3(O)[C@@H]4CCCN4C(=O)[C@H](Cc4ccccc4)N3C2=O)C=C2c3cccc4[nH]cc(c34)C[C@H]21.CN1C[C@H](C(=O)N[C@]2(C)O[C@@]3(O)[C@@H]4CCCN4C(=O)[C@H](Cc4ccccc4)N3C2=O)C=C2c3cccc4[nH]cc(c34)C[C@H]21.O=C(O)C(O)C(O)C(=O)O [ERGOTAMINE TARTRATE]", "Compound metabolized"],
  ["CCC1(c2ccc(N)cc2)CCC(=O)NC1=O (configuration not stated) [AMINOGLUTETHIMIDE]", "Compound NOT metabolized"],
  ["CCN(CC)C(C)CN1c2ccccc2Sc2ccccc21 (configuration not stated) [ETHOPROPAZINE]", "Compound metabolized"],
  ["CN1CCc2cccc3c2[C@H]1Cc1ccc(O)c(O)c1-3 [APOMORPHINE]", "Compound NOT metabolized"],
  ["OC(CCN1CCCCC1)(c1ccccc1)C1CC2C=CC1C2 (configuration not stated) [BIPERIDEN]", "Compound metabolized"]
]}

Fill in: Bacterial Biotransformation of "CN1CC(=O)N2[C@H](c3ccc4c(c3)OCO4)c3[nH]c4ccccc4c3C[C@@H]2C1=O" is ___
Compound metabolized

What value of Bacterial Biotransformation has been recorded for this entry: CCN1CCCC1CNC(=O)c1cc(S(N)(=O)=O)ccc1OC (configuration not stated) [SULPIRIDE]
Compound metabolized
